target: recombinant human IL-5 protein (human) (UniProt P05113); experiment: SPR, human IL-5 immobilized on CM5 chip, chimeric antibody as analyte, 1:1 global fit
pKd: −log10 of the molar value.
measurement-name: pKd

Ask: Returns the measured pKd for the input binder. Input: 151G3B11 mouse-human chimeric antibody (antibody, human IgG4, V domains shown) VH: EVHLQQSGAELVKPGASVKLSCTASGFNIKDYYMHWVKQRTEQGLEWIGRIDPEDGETKYAPKFQGQATITADTSSNTANLQLSSLTSEDTAVYYCARYGNFPDYWGPGTTLTVSS VL: QIVLTQSPALMSASPGEKVTMTCSASSSVSYMYWYQQKPRSSPKPWIYLTSKLASGVPARFSGSGSGTSYSLTISSMEAEDAATYYCQQWNSNPYTFGGGTKLEIK
Result: > 10.20

Ask: Endpoint output: pKd of 69F2F3 mouse-human chimeric antibody (antibody, human IgG4, V domains shown) VH: QVQLKQSGPGLVQPSQSLSITCTVSGFSLSNYGVHWVRQSPGKGLEWLGVIWSGGSTDYNAAFKSRLSITKDNSKSQVVFRMNSLQTDDTATYYCARNKDFLDYWGQGTKFTVSS VL: DIVMTQSPSSLTVTAGEKVTMTCKSSQGLLNSGNQKNYLTWYQQKPGQPPKLLIYWASTRESGVPDRFTGSGSGTDFTLTISSVQAEDLAVYYCQNDYHFPLTFGAGTKLELK . Value?
Result: > 9.92

Ask: Give the measured pKd of 147D7H2 mouse-human chimeric antibody (antibody, human IgG4, V domains shown) VH: EVQLQQSGAELVKPGASVKLSCTASGFNIKDYFIHWVKQRTEQGLEWIGRIDTEDGETKYAPKFQGKATITIDTSSNTAYLYFSSLTSEDTAMYYCARYGNYVAMDYWGQGTSVTVSS VL: QIVLTQSPALMSASPGEKVTMTCSASSSVSYMFWYQQKPSSSPKPWIYLTSKLASGVPARFSGSGSGTSYSLTISSVEAEDAATYYCQQWNSNPYTFGGGTKLEIK .
Result: > 10.20

This collection of values is drawn from patent US20220010008A1.
